// pIC50 lookup, one value per entry
target: α4β1 integrin (Homo sapiens, UniProt P05556+P13612); construct: Jurkat™ cells (maintained in log phase growth) were labeled with Calcein AM; endogenous in cells; host or cells: Jurkat cells; assay: α4β1 Integrin Adhesion Assay: Jurkat Cell Adhesion to Human Plasma Fibronectin; assay type: cell-based; conditions: Jurkat cells, without the human serum
Sequence (P13612 34-1032): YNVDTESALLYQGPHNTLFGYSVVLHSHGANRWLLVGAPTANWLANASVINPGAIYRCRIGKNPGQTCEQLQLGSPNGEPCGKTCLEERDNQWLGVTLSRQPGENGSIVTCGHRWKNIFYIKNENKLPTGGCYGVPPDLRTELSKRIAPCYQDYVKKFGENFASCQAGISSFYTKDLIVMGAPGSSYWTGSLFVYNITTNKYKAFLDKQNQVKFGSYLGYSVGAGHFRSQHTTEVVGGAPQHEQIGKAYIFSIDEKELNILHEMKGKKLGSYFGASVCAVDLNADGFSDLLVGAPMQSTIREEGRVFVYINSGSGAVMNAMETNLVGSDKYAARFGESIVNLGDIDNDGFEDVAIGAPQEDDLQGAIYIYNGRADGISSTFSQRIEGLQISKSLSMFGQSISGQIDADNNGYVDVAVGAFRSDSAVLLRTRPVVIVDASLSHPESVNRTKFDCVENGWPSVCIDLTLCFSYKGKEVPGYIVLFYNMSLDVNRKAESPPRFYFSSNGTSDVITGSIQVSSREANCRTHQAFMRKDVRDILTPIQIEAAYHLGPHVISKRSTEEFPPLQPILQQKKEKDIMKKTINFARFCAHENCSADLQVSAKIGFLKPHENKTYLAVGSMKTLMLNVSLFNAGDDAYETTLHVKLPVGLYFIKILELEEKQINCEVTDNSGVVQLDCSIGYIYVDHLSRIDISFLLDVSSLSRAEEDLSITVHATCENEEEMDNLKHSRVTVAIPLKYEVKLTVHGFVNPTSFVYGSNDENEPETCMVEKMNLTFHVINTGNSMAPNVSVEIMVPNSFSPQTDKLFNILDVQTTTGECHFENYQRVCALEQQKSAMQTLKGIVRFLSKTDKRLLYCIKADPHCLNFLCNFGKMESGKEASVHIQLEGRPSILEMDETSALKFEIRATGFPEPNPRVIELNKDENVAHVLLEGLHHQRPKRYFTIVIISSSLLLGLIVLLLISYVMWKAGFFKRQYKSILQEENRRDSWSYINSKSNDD
Sequence (P05556 21-798): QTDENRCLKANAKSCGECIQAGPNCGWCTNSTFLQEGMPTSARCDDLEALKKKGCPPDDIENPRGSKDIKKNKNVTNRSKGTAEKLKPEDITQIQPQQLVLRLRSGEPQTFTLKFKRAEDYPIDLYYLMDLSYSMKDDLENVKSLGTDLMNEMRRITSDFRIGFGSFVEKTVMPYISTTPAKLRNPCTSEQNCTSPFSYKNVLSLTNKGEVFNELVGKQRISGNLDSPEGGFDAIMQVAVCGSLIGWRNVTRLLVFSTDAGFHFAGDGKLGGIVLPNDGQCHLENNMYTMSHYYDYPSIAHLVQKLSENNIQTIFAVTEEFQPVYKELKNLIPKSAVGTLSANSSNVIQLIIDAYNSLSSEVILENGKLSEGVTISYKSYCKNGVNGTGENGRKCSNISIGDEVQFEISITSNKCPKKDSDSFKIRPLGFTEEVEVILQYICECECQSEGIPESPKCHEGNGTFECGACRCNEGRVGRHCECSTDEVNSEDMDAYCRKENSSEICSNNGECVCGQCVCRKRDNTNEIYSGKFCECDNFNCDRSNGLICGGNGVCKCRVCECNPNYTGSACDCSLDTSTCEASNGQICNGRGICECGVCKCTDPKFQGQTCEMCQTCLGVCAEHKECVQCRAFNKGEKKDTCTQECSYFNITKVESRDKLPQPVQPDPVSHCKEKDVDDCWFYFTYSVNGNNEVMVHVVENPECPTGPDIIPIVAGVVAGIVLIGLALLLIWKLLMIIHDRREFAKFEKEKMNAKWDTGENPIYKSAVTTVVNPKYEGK
pIC50 here: minus log base 10 of the concentration, concentration in moles per litre.

Answered cases to consult:
1) CCN(CC)c1ncc(N(C)S(=O)(=O)c2ccc(Cl)cc2)c(N[C@@H](Cc2ccc(OC(=O)N3CCC3)cc2)C(=O)O)n1 : 8.49
2) CCN(CC)c1ncc(N(CC)S(=O)(=O)c2ccc(Cl)cc2)c(N[C@@H](Cc2ccc(OC(=O)N3CCCC3)cc2)C(=O)O)n1 : 7.77
3) CCN(CC)c1ncc(N(CC)S(=O)(=O)c2ccc(F)cc2F)c(N[C@@H](Cc2ccc(OC(=O)N3CCCC3)cc2)C(=O)O)n1 : 8.06
4) CCN(CC)c1ncc(N(CC)S(=O)(=O)c2ccc(F)cc2)c(N[C@@H](Cc2ccc(OC(=O)N3CCC3)cc2)C(=O)O)n1 : 8.79

# input for lookup
Assay α4β1 integrin (Homo sapiens, UniProt P05556+P13612), sample "C#CCN(c1cnc(N(CC)CC)nc1N[C@@H](Cc1ccc(OC(=O)N2CCCC2)cc1)C(=O)O)S(=O)(=O)c1ccc(Cl)cc1" , pIC50 read: 8.16

----------
target: α4β1 integrin (Homo sapiens, UniProt P05556+P13612); construct: Jurkat™ cells (maintained in log phase growth) were labeled with Calcein AM; endogenous in cells; host or cells: Jurkat cells; assay: α4β1 Integrin Adhesion Assay: Jurkat Cell Adhesion to Human Plasma Fibronectin; assay type: cell-based; settings: Jurkat cells, containing human serum
// pIC50 lookup, one value per entry
pIC50 here: minus log base 10 of the concentration, concentration in moles per litre.

Answered cases to consult:
1. CCN(CC)c1ncc(N(CC)S(=O)(=O)c2ccc(F)cc2)c(N[C@@H](Cc2ccc(OC(=O)N3CCCCC3)cc2)C(=O)O)n1 : 6.15
2. C#CCN(c1cnc(N(CC)CC)nc1N[C@@H](Cc1ccc(OC(=O)N2CCC2)cc1)C(=O)O)S(=O)(=O)c1ccc(F)cc1 : 6.32

# input for lookup
Per the record, "CCN(CC)c1ncc(N(CC)S(=O)(=O)c2ccc(F)cc2F)c(N[C@@H](Cc2ccc(OC(=O)N3CCCC3)cc2)C(=O)O)n1" has pIC50 of 6.64

----------
// pIC50 lookup, one value per entry
target: α4β1 integrin (Homo sapiens, UniProt P05556+P13612); construct: Jurkat™ cells (maintained in log phase growth) were labeled with Calcein AM; endogenous in cells; host or cells: Jurkat cells; assay: α4β1 Integrin Adhesion Assay: Jurkat Cell Adhesion to Human Plasma Fibronectin; format: cell-based; details: Jurkat cells, containing human serum
pIC50 here: minus log base 10 of the concentration, concentration in moles per litre.

Answered cases to consult:
1) C#CCN(c1cnc(N(CC)CC)nc1N[C@@H](Cc1ccc(OC(=O)N2CCCC2)cc1)C(=O)O)S(=O)(=O)c1ccc(Cl)cc1 : 5.20
2) C#CCN(c1cnc(N(CC)CC)nc1N[C@@H](Cc1ccc(OC(=O)N2CCCC2)cc1)C(=O)O)S(=O)(=O)c1ccc(F)cc1F : 6.25

# input for lookup
Assay α4β1 integrin (Homo sapiens, UniProt P05556+P13612), sample "CCN(CC)c1ncc(N(CC)S(=O)(=O)c2ccc(Cl)cc2)c(N[C@@H](Cc2ccc(OC(=O)N3CCC3)cc2)C(=O)O)n1" , pIC50 read: 7.08

----------
// IC50 lookup, one value per entry
target: α4β1 integrin (Homo sapiens, UniProt P05556+P13612); construct: Jurkat™ cells (maintained in log phase growth) were labeled with Calcein AM; endogenous in cells; host or cells: Jurkat cells; assay: α4β1 Integrin Adhesion Assay: Jurkat Cell Adhesion to Human Plasma Fibronectin; type: cell-based; details: Jurkat cells, without the human serum
Your answer should be a plain number; it is taken to be in nM.

Answered cases to consult:
1) CCN(CC)c1ncc(N(CC)S(=O)(=O)c2ccc(Cl)cc2)c(N[C@@H](Cc2ccc(OC(=O)N3CCC3)cc2)C(=O)O)n1 : 4.06
2) CCN(CC)c1ncc(N(C)S(=O)(=O)c2ccc(Cl)cc2)c(N[C@@H](Cc2ccc(OC(=O)N3CCCC3)cc2)C(=O)O)n1 : 19
3) CCN(CC)c1ncc(N(C)S(=O)(=O)c2ccc(F)cc2F)c(N[C@@H](Cc2ccc(OC(=O)N3CCC3)cc2)C(=O)O)n1 : 2.45

Assay α4β1 integrin (Homo sapiens, UniProt P05556+P13612), sample "CCN(CC)c1ncc(N(C)S(=O)(=O)c2ccc(F)cc2)c(N[C@@H](Cc2ccc(OC(=O)N3CCCC3)cc2)C(=O)O)n1" , IC50 read: 6.51
